Known lowest phenotypically active concentration of a selection of compounds
- Test system: HepG2-TUBA1B-RELA
- experiment: lowest phenotypically active concentration; higher = less potent
- assay.context: treatment time: 24 h
Only the number, expressed in µM, is required.

Q: Which lowest phenotypically active concentration is reported for this compound? `O=c1cc(N2CCOCC2)oc2c(-c3ccccc3)cccc12`
A: 9

Now look at this one.
Q: Which lowest phenotypically active concentration is reported for this compound? `O=C(CCCCCCC(=O)Nc1ccccc1)NO`
A: 1

---

- Test system: WPMY1-ACTB-RAB5A
- experiment: lowest phenotypically active concentration; higher = less potent
- assay.context: treatment time: 24 h
Where a name gives a salt, the structure may show the parent alone.
Known lowest phenotypically active concentration of a selection of compounds
Only the number, expressed in µM, is required.

Q: Which lowest phenotypically active concentration is reported for this compound? CCN1C(=O)NC(c2ccccc2)C1=O (stereo not given) [ethotoin]
A: 3

Further cases:
Q: Which lowest phenotypically active concentration is reported for this compound? `c1ccc(-c2n[nH]cc2-c2ccnc3ccccc23)nc1`
A: 9

Q: Which lowest phenotypically active concentration is reported for this compound? Fc1ccccc1CNCc1ccc(-c2ccnc3[nH]ccc23)cc1 [OXA 06 dihydrochloride]
A: 1
